system: BDF1 mice, s.c. Lewis lung carcinoma, T/C %; assay: NCI In Vivo Anticancer Drug Screen. Data for tumor model Lewis Lung Carcinoma (subcutaneous) in B6D2F1 (BDF1) mice; conditions: endpoint: mean tumor weight; dose: 250.0 mg/kg/injection; schedule: Q01DX011 (ip); vehicle: saline; higher = larger tumour
Results filed as inconclusive are left out.
propertyLabel: T/C

Examples from the recorded data:
>  <compound>
Nc1ccc(OC(=O)Oc2ccc(N)cc2)cc1

>  <tgt>
BDF1 mice, s.c. Lewis lung carcinoma, T/C %

>  <T/C>
18 % of control

$$$$
>  <compound>
CCOC(N)=O

>  <tgt>
BDF1 mice, s.c. Lewis lung carcinoma, T/C %

>  <T/C>
62 % of control

$$$$
>  <compound>
OCCc1ccccc1

>  <tgt>
BDF1 mice, s.c. Lewis lung carcinoma, T/C %

>  <T/C>
75 % of control

$$$$
>  <compound>
CN1CC(=O)N=C1N

>  <tgt>
BDF1 mice, s.c. Lewis lung carcinoma, T/C %

>  <T/C>
105 % of control

$$$$
>  <compound>
O=CN1CCOCC1

>  <tgt>
BDF1 mice, s.c. Lewis lung carcinoma, T/C %

>  <T/C>
81 % of control

$$$$

Enquiry: For the compound `c1ccc2nc3ccccc3c-2cc1` , what T/C is on record?
Return: 76 % of control

Enquiry: For the compound CCC(c1ccc(O)cc1)C(CC)c1ccc(OC)cc1 (stereo not drawn) , what T/C is on record?
Return: 13 % of control

Enquiry: For the compound `C=C[C@]1(C)C=C2CC[C@@H]3[C@](C)(CCC[C@@]3(C)C(=O)O)[C@H]2CC1` , what T/C is on record?
Return: 82 % of control

Where do the numbers come from? From PubChem BioAssay AID270.
